# system: Fuc(a1-2)[Gal(a1-3)]Gal(b1-4)GlcNAc(b1-3)GalNAc
# protocolDescription: glycan array binding signal (z-score within array); higher = stronger binding
# recordedConditions: glycan notation: IUPAC condensed, linker removed
About 410 targets per protein were measured; listed, in parts, are those with the strongest signals and a random draw of the rest.
Use class 1 when the recorded glycan array binding signal (z-score) is no lower than -0.5; use class 0 when it is lower.

[[record]]
binder = "Pwp2 (Candida glabrata) (protein) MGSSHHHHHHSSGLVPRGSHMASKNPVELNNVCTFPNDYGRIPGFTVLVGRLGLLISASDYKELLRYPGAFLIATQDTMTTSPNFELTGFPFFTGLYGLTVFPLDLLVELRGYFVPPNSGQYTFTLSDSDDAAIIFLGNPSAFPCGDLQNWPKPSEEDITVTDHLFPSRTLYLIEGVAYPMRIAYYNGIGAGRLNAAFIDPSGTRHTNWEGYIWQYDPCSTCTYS"
discretelabel = "class 0"

[[record]]
binder = "Protein L(B1-B4) (Finegoldia magna), Q51912 (protein) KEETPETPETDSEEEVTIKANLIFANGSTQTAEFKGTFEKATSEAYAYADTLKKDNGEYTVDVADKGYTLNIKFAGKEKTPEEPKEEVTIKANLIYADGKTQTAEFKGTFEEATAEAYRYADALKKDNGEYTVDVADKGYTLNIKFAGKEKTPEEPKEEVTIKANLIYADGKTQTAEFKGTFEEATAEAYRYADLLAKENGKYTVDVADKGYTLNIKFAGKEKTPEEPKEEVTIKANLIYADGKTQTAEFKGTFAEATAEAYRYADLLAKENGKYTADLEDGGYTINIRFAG"
discretelabel = "class 1"

[[record]]
binder = "Eosinophil-derived neurotoxin (EDN) (Homo sapiens), P10153 (protein) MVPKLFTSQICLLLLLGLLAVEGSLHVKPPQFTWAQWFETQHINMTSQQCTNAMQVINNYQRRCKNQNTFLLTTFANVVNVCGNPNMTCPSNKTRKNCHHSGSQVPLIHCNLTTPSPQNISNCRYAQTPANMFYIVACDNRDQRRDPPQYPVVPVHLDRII"
discretelabel = "class 0"

[[record]]
binder = "SJCP1084 (Schistosoma japonicum) (protein) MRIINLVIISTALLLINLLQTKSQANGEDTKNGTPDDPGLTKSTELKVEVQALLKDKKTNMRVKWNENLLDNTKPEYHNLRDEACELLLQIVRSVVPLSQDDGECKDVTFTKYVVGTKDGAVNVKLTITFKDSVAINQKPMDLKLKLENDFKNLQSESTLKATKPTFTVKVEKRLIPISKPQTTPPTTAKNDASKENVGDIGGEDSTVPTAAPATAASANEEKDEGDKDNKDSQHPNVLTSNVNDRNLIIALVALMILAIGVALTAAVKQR"
discretelabel = "class 1"

[[record]]
binder = "HBHA-Rv (Mycobacterium tuberculosum), P0A5P6 (protein) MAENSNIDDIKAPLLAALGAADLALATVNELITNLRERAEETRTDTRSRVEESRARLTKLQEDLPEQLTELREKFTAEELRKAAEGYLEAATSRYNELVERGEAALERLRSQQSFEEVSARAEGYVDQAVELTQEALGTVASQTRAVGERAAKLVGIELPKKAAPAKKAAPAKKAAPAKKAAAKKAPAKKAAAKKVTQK"
discretelabel = "class 1"

